The measured values listed here are drawn from patent US12441755B2.

Molecular target: Gal-3 (Homo sapiens)
Sequence (P17931 whole entry): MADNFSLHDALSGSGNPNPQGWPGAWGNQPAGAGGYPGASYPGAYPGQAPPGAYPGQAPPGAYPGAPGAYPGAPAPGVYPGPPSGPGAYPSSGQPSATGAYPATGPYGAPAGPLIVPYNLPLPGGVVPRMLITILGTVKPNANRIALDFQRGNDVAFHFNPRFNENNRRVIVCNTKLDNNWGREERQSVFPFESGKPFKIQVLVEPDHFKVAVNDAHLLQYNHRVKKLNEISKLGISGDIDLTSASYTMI
Experiment: Fluorescence anisotropy assay, compound as inhibitor of galectin / fluorescein tagged saccharide probe interaction
pKd: −log10 of the molar value.
measure_name: pKd

Solved entries (count: 6):
Cc1nc([C@@H]2OC(CO)[C@H](O)C(n3cc(-c4nc(Cl)cs4)nn3)C2O)n(-c2cc(Cl)ccc2C(F)(F)F)n1 (some centres unmarked) = 7.41
Cc1nnc([C@@H]2O[C@H](CO)[C@H](O)[C@H](n3cc(-c4csc(N)n4)nn3)[C@H]2O)n1-c1cc(Cl)ccc1C(F)(F)F = 6.09
Cc1nc([C@@H]2O[C@H](CO)[C@H](O)[C@H](n3cc(-c4csc(C)n4)nn3)[C@H]2O)n(-c2ccc3nc(C)sc3c2)n1 = 5.74
Cc1nc2ccc(-n3cnnc3[C@@H]3O[C@H](CO)[C@H](O)[C@H](n4cc(-c5csc(O)n5)nn4)[C@H]3O)cc2s1 = 5.72
Cc1nc2ccc(-n3cnnc3[C@@H]3O[C@H](CO)[C@H](O)[C@H](n4cc(-c5nccs5)nn4)[C@H]3O)cc2s1 = 5.92
Cc1nc([C@@H]2O[C@H](CO)[C@H](O)[C@H](n3cc(-c4nccs4)nn3)[C@H]2O)n(-c2ccc3nc(C)sc3c2)n1 = 5.64

I = Cc1nnc([C@@H]2O[C@H](CO)[C@H](O)[C@H](n3cc(-c4nccs4)nn3)[C@H]2O)n1-c1cc(Cl)ccc1C(F)(F)F
II = CO[C@@H]1[C@@H](n2cc(-c3nc(Cl)cs3)nn2)[C@@H](O)[C@@H](CO)O[C@H]1c1nnc(C)n1-c1ccc2nc(C)sc2c1
III = Cc1nc([C@@H]2O[C@H](CO)[C@H](O)[C@H](n3cc(-c4csc(N)n4)nn3)[C@H]2O)n(-c2ccc3nc(C)sc3c2)n1
IV = Cc1nnc([C@@H]2O[C@H](CO)[C@H](O)[C@H](n3cc(-c4nc(Cl)cs4)nn3)[C@H]2O)n1-c1cc(Cl)ccc1C(F)(F)F
V = Cc1csc(-c2cn([C@H]3[C@@H](O)[C@@H](CO)O[C@@H](c4nnc(C)n4-c4cc(Cl)ccc4C(F)(F)F)[C@@H]3O)nn2)n1
input: Ordering criterion: pKd; begin with the maximum. Your reply should list the labels following the order given in the request.
output: IV, II, I, V, III

1 = Cc1nc([C@@H]2O[C@H](CO)[C@H](O)[C@H](n3cc(-c4nc(Cl)cs4)nn3)[C@H]2O)n(-c2cc(Cl)cnc2C2CC2)n1
2 = Cc1nnc([C@@H]2OC(CO)[C@H](O)C(n3cc(-c4nc(Cl)cs4)nn3)C2O)n1-c1ccc2ncn(C)c2c1 (some centres unmarked)
input: Pick the one with the larger pKd: 1 vs 2 Your choice should be expressed through its label.
output: 2
(2: 7.44, 1: 6.89)

P = Cc1nc2ccc(-n3cnnc3[C@@H]3O[C@H](CO)[C@H](O)[C@H](n4cc(-c5nc(Cl)cs5)nn4)[C@H]3O)cc2s1
Q = Cc1nc2ccc(-n3c(C)nnc3[C@@H]3O[C@H](CO)[C@H](O)[C@H](n4cc(-c5nc(Cl)cs5)nn4)[C@H]3O)cc2s1
input: Higher pKd between P and Q ? Identify your pick by its label.
output: Q
(Q: 7.19, P: 6.82)
